test system: ATP; experiment: switch fluorescence ratio, 500 uM ATP over buffer (Cy3 cluster intensity, sum of 5 cycles each) (fold (ratio)); higher = stronger signal-on switching upon ATP binding; sequences stand for … in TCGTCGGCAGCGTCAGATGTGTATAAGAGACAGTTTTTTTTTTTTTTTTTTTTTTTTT…TC; details: aptamer strand: ATP DNA aptamer (quencher-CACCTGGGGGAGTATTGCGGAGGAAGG + anchor), 100 nM annealed; ATP concentration: 500 uM;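 note: ATP exposure 15 min at 22 °C before imaging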
Assign T to entries whose switch fluorescence ratio meets or exceeds 1; assign F to the rest.

CGACGCGGTA: T
GTTAGGAGTT: F
CCAGGTAACT: T
AAGACGTAGG: T
ATGTACGCTT: T
GGGGTGATGC: T
AAGGTGCAAG: T
ATTCCCGGAT: T
GCAGAGGGGG: T
TTTCCCTCGT: T
TTGGTTACTG: T
ATTGAGAATC: F
CTATGATATT: F
GAGAGGGGGA: F
TAAGCTGTCA: F

* * *

system: ATP; experiment: switch fluorescence ratio, 500 uM ATP over buffer (Cy3 cluster intensity, sum of 5 cycles each) (fold (ratio)); higher = stronger signal-on switching upon ATP binding; sequences stand for … in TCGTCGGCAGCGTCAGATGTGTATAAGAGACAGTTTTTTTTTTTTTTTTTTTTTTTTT…TC; conditions: aptamer strand: ATP DNA aptamer (quencher-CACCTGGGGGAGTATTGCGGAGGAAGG + anchor), 100 nM annealed; ATP concentration: 500 uM;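 note: ATP exposure 15 min at 22 °C before imaging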
measure: switch fluorescence ratio

CCTAGGAGCC: 1.05
CGGAAGGGTA: 0.989
GGGTTGCTTA: 0.99
GAATGGCGG: 0.998
AAGGAATGGT: 1.05
CGGTAAATGG: 1.02
GACCGGGTTC: 1.02
TTCGTTCCGT: 1.03
GAGGTAGGGA: 1.06
CATTCAGTCG: 1
TGGTTGCTTG: 1.01
AGGGCGGGGC: 0.944
AGGCCGTCGT: 1.04
CCAGGGCTAG: 1.02
ATAGTATGTA: 1.01
AAAGAGGTTT: 0.985
CTACGAGGTA: 1.05
GGGTATGCGA: 0.984
ATATTTAAGG: 0.995
CCTTTCGGGT: 0.982
ATGTCGACAC: 0.976

* * *

system: ATP; assay: switch fluorescence ratio, 500 uM ATP over buffer (Cy3 cluster intensity, sum of 5 cycles each) (fold (ratio)); higher = stronger signal-on switching upon ATP binding; sequences stand for … in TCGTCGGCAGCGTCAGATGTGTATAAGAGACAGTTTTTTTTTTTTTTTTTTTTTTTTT…TC; details: aptamer strand: ATP DNA aptamer (quencher-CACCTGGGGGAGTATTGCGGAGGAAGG + anchor), 100 nM annealed; ATP concentration: 500 uM;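 note: ATP exposure 15 min at 22 °C before imaging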
Assign 1 to entries whose switch fluorescence ratio meets or exceeds 1; assign 0 to the rest.

TGAAGGGAAC: 1
TTCAGCATTT: 1
CGTCTAAGGG: 1
GGGTCCAGGG: 1
GAGTGTGACT: 0
ATTAGGTCTG: 0
GTGTGGTTTT: 1

* * *

system: ATP; assay: switch fluorescence ratio, 500 uM ATP over buffer (Cy3 cluster intensity, sum of 5 cycles each) (fold (ratio)); higher = stronger signal-on switching upon ATP binding; sequences stand for … in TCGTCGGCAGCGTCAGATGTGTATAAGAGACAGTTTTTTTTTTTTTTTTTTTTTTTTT…TC; settings: aptamer strand: ATP DNA aptamer (quencher-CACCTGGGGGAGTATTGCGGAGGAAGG + anchor), 100 nM annealed; ATP concentration: 500 uM;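 note: ATP exposure 15 min at 22 °C before imaging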
Property: switch fluorescence ratio; scope: individual sequences
measure: switch fluorescence ratio

TGCATTAGGA: 1.02
AATGAATGCA: 1
TTTGTTGTAA: 1.01
GGAGGTAGTC: 0.99
TTTGTTCTGT: 1.01
TGATGGGGGA: 1.01
GTCCGAAAGA: 1.18
TGGGGAACG: 0.959
AAAATACAGA: 1.08
AAACATTATT: 1
GTGTTTTAGG: 0.96
GGGGCGGACT: 0.952
CGAATATAGC: 1.02
GTGGGATTAG: 1
GGCAGGGGGT: 1.04
TTACAAGAAA: 1.03
TGGAGCGGTT: 1.03
GCCGGGGTGA: 1.04
AACCGTGGGG: 1.05
AAGATTAGTG: 0.983
ATGTTTGGTG: 0.97
GCTAAATGTT: 0.988
CGAAAGGTTG: 0.939
TTTCTTTAAG: 0.985
ATTCCTAGA: 0.992
AGCGCTGGGA: 1
AGGGTCAATC: 1.04
TTTGGGGCTG: 1.04
CATTTAAAGC: 1
GCGCACCACG: 1.06
TTTGCGGGTG: 1.6
CGGGTTGGGC: 1.07
TACGGGCGGC: 1.05
ATGCGCTTTT: 1.03
GGGTTACTGT: 0.985
AGCAGTTTAC: 1.17
GAGGTTTGTA: 0.974
TCTTCACGTC: 1
GTTTGGCATG: 1
TTGTGGCGCC: 0.958
ACTAGTTTTG: 0.976
TTTCTAATAT: 1
GATATTCGGG: 0.988
